target: human thrombin with His tag (human, UniProt P00734 328-622); assay: Biacore; reference h1601-008
PROPERTY_NAME: Fold of Affinity relative to h1601-008 (fold)
Give bare numbers, in fold.

Which measured Fold of Affinity relative to h1601-008 value corresponds to aTM-7 (antibody, V domains shown) VH: EVQLVESGGGLVQPGGSLRLSCAASGFTFSDYYMAWVRQAPGKGLEWVSNINSDGSSTYYLDSLKSRFTISRDNSKNTLYLQMNSLKAEDTAVYYCARDHYMGNSYVFDTWGQGTTVTVSS VL: DIQMTQSPSSLSASVGDRVTITCKASEDIYNRLAWYQQKPGKAPRLIISGATSLETGVPSRFSGSGSGKDYTLTISSLQPEDFATYYCQQYWSTPWTFGGGTKVEIK ?
45.2
